B1: Twister Ribozyme (parent)
chain: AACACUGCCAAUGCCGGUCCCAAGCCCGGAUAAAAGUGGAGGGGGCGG

# Variants of: B1
# ASSAY_DETAILS: self-cleavage, relative activity (ratio to wild type); higher = more cleavage; co-transcriptional
Consider the following variants and their measured self-cleavage readings.
READOUT_NAME: self-cleavage

mutant_id="A4U G29U" observed_value=0.094
mutant_id="C3A G24U" observed_value=0.0787
mutant_id="C15U G16U" observed_value=0.31
mutant_id="G13C A33C" observed_value=0.236
mutant_id="A1U G28A" observed_value=0.0517
mutant_id=G43A observed_value=0.328
mutant_id="G24A G43A" observed_value=0.102
mutant_id="C27G A33C" observed_value=0.0584
mutant_id="C21U A32G" observed_value=0.0636
mutant_id="C9A A22C" observed_value=0.642
mutant_id="C20U A33U" observed_value=0.778
